# Subject Of Test: LRRK2 G2019S (Homo sapiens, UniProt Q5S007, G2019S)
# Sequence (Q5S007 whole entry G2019S): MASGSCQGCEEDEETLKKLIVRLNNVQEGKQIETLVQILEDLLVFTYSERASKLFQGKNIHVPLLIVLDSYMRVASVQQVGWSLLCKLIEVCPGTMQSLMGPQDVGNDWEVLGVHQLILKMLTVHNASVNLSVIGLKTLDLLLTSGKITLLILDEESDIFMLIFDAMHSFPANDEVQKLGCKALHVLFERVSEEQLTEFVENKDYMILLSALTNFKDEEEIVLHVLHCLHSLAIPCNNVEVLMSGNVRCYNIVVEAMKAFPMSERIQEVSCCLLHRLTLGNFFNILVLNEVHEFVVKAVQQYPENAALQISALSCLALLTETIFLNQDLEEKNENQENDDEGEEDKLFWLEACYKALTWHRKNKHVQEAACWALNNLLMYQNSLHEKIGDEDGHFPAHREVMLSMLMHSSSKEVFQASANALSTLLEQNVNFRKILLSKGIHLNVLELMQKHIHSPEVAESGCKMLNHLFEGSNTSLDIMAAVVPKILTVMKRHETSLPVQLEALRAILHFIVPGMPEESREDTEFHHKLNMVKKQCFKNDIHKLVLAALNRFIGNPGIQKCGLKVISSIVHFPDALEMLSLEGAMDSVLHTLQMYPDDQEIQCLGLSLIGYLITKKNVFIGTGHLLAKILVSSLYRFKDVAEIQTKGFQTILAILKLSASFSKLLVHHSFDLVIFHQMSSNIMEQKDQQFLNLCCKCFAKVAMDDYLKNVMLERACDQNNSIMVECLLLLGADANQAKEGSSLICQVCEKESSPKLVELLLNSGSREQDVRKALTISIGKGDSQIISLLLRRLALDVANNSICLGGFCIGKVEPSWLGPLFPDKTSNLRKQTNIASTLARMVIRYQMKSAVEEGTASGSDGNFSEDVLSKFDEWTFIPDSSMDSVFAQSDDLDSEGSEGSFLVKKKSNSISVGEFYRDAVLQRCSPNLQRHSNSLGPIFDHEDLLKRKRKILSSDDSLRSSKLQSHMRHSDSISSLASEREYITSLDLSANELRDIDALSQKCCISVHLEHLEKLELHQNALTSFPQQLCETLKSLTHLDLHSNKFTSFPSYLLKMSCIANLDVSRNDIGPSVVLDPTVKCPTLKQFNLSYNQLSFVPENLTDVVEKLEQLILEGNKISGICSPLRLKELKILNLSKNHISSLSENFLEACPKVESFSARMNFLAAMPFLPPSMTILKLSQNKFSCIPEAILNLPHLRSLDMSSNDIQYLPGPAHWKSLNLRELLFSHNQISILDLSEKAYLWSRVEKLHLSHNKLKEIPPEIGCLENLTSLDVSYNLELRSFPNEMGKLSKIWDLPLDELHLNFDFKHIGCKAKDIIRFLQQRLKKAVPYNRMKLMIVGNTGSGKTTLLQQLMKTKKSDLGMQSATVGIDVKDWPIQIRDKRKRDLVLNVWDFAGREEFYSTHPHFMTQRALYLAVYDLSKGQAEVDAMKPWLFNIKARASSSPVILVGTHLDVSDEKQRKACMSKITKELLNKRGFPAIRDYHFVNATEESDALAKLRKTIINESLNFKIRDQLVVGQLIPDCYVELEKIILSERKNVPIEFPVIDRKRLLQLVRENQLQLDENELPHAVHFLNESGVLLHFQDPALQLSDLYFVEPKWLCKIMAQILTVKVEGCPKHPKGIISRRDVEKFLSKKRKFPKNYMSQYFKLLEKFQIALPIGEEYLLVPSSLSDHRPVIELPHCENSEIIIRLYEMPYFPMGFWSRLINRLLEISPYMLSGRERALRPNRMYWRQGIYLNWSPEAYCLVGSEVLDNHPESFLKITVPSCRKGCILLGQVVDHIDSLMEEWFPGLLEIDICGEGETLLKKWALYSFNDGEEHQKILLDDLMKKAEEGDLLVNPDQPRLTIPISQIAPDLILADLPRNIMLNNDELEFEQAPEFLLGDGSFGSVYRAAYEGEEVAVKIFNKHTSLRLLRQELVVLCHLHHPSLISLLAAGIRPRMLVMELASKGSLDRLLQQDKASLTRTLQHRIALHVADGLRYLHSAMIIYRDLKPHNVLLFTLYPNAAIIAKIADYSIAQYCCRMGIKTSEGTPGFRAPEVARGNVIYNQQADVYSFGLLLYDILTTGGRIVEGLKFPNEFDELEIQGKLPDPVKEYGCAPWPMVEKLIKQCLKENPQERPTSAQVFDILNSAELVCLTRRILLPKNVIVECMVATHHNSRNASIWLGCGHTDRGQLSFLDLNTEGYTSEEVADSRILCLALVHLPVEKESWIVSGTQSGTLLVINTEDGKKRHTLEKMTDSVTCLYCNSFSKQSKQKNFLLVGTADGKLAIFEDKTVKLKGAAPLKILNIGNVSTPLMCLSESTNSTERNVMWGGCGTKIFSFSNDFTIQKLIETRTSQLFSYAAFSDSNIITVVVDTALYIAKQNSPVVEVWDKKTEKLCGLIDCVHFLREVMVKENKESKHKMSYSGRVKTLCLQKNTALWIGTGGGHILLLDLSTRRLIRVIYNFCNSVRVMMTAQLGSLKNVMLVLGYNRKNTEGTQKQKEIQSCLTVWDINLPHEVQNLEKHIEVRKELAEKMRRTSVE
# Method Summary: LRRK2 G2019S Km ATP LanthaScreen assay
# Assay type: biochemical
# Conditions Used: read-out: LRRK2 pIC50 (converted)
Listed next: entries and their corresponding IC50.
Output spec: scalar in nM, unitless text.

Here are 3 compounds together with their reported answers.
I have this compound here, CC1(C)CC(C(=O)Nc2cc3cc(C4CCN(C5(C)COCC5O)CC4)c(Cl)cc3cn2)CO1 (stereo not shown) [Ex-2.29] , and I need its recorded IC50. 0.234

Okay, and COC1CC(C(=O)Nc2cc3cc(C4(C#N)CC45CC5)ccc3cn2)C1 (single isomer, unassigned) [Ex-1.2] ? 0.661

Try this compound too: CC1(N2CCC(c3cc4cc(NC(=O)C5CC56CCOC6)ncc4cc3Cl)CC2)COCC1F (single isomer, unassigned) [Ex-6.5] 0.537

Let's switch to this compound now.
Please look up its IC50: COC1COCC1(C)N1CCC(c2cc3cc(NC(=O)C4CC45CCOCC5)ncc3cc2Cl)CC1 (single isomer, unassigned) [Ex-6.23] 1.82

----------
# Subject Of Test: LRRK2 G2019S (Homo sapiens, UniProt Q5S007, G2019S)
# Method Summary: LRRK2 G2019S Km ATP LanthaScreen assay
# Assay type: biochemical
# Conditions Used: read-out: LRRK2 pIC50 (converted)
Measured Endpoint: log10(IC50) (log10 of the value in nM)
Scale: decimal log of IC50, IC50 in nM.

// known answers, use as guide
For LRRK2 G2019S (Homo sapiens, UniProt Q5S007, G2019S), provide log10(IC50) of O=C(Nc1cc2cc(C3CCN(C4COC4)CC3)c(Cl)cc2cn1)C1CC1(F)F (single isomer, unassigned) please. 0.77

Likewise for CC(C)(O)C1CC1C(=O)Nc1cc2cc(C3CCN(C4(C)COCC4O)CC3)c(Cl)cc2cn1 (stereo not shown) [Ex-2.21] ? -1.09

Please give the result for CC(C)(F)C1CC1C(=O)Nc1cc2cc(C3CCN(C4(C)COCC4O)CC3)c(Cl)cc2cn1 (single isomer, unassigned) [Ex-4.47] too. 0.30

And then CC1(N2CCC(c3cc4cc(NC(=O)c5cnn(C6CC6)c5Cl)ncc4cc3Cl)CC2)COCC1O (single isomer, unassigned) , what is it? -1.09

What would you report for N#CC1(c2ccc3cnc(NC(=O)C4CCN(CC(F)(F)F)C4)cc3c2)CC12CC2 (stereo not shown) [Ex-2.44] ? 1.60

Also need COC1COCC1N1CCC(c2cc3cc(NC(=O)C4CC45CCOCC5)ncc3cc2Cl)CC1 (single isomer, unassigned) [Ex-6.52] , thanks. -0.70

Others:
Please tell me: log10(IC50) of CCC1C(C(=O)Nc2cc3cc(C(C)COC)c(Cl)cc3cn2)C1c1cnn(C)c1 (single isomer, unassigned) [Ex-9.14] , system LRRK2 G2019S (Homo sapiens, UniProt Q5S007, G2019S)? 0.07

----------
A collection of molecules and their measured log10(IC50)
# Subject Of Test: LRRK2 G2019S (Homo sapiens, UniProt Q5S007, G2019S)
# Method Summary: LRRK2 G2019S Km ATP LanthaScreen assay
# Assay type: biochemical
# Conditions Used: read-out: LRRK2 pIC50 (converted)
Note the log scale: values are log10 of IC50 expressed in nM.

Requested field: log10(IC50). Item: Cc1cc2cnc(NC(=O)C3CC34CCOC4)cc2cc1C1CCN(C2(C)COCC2F)CC1 (single isomer, unassigned) [Ex-15.10] 0.30

Also check Cc1noc(C2CC2C(=O)Nc2cc3cc(C4CCN(C5(C)COCC5O)CC4)c(Cl)cc3cn2)n1 (single isomer, unassigned) -1.09

What do we get for CN1CCO[C@@H](C(=O)Nc2cc3cc(C4(C#N)CC45CC5)ccc3cn2)C1 (single isomer, unassigned) ? 1.07

What do we get for CC1(N2CCC(c3cc4cc(NC(=O)C5CC5c5ccccn5)ncc4cc3Cl)CC2)CCOC1 (single isomer, unassigned) [Ex-6.32] ? 0.75

Okay, and Cc1ccc(C2CC2C(=O)Nc2cc3cc(C4CCN(C5(C)COCC5O)CC4)c(Cl)cc3cn2)s1 (single isomer, unassigned) [Ex-4.58] ? 0.18

----------
# Subject Of Test: LRRK2 G2019S (Homo sapiens, UniProt Q5S007, G2019S)
# Method Summary: LRRK2 G2019S Km ATP LanthaScreen assay
# Format: biochemical
# Conditions Used: read-out: LRRK2 pIC50 (converted)
Measured Endpoint: log10(IC50) (log10 of the value in nM)
Parameter value (number): base-10 log of IC50 in nM.

Would you kindly share the measured log10(IC50) for CC1(N2CCC(c3cc4cc(NC(=O)C5CC(F)(F)C5)ncc4cc3Cl)CC2)COCC1O (single isomer, unassigned) [Ex-1.18] ? 0.13

Then what about the molecule CC1(N2CCC(c3cc4cc(NC(=O)C5C6CCCC65)ncc4cc3Cl)CC2)COCC1O (single isomer, unassigned) [Ex-1.20] ? -0.74

One more molecule: Cn1cc(C(C)(C)C(=O)Nc2cc3cc(C4CCN(C5(C)COCC5F)CC4)c(Cl)cc3cn2)cn1 (single isomer, unassigned) [Ex-6.55] 2.65

Would you mind doing CC1C(C(=O)Nc2cc3cc(C4CCN(C5(C)COCC5O)CC4)c(Cl)cc3cn2)C12CCOCC2 (single isomer, unassigned) [Ex-10.8] as well? 2.16

Another: Cc1cc2cnc(NC(=O)C3CC34CCOCC4)cc2cc1C1CCN(C2(C)COCC2O)CC1 (single isomer, unassigned) [Ex-15.16] -1.09

----------
Entries and their measured IC50 follow.
# Subject Of Test: LRRK2 G2019S (Homo sapiens, UniProt Q5S007, G2019S)
# Method Summary: LRRK2 G2019S Km ATP LanthaScreen assay
# Assay type: biochemical
# Conditions Used: read-out: LRRK2 pIC50 (converted)
# Text: Unless otherwise noted, all reactions are magnetically stirred. Unless otherwise noted, when diethyl ether is used in the experiments described below, it is Fisher ACS certified material and is stabilized with BHT. Unless otherwise noted, “concentrated” and/or “solvent removed under reduced pressure” means evaporating the solvent from a solution or mixture using a rotary evaporator or vacuum pump. […]
Express your answer as a number followed by its unit.

The cases that follow already have their IC50 on record.
Notebook entry, LRRK2 G2019S (Homo sapiens, UniProt Q5S007, G2019S) assay: IC50 of CC(CC#N)c1cc2cc(NC(=O)C3CC3c3ccccn3)ncc2cc1Cl (single isomer, unassigned) [Ex-9.21] = ? 26.3 nM

Input COC1COCC1(C)N1CCC(c2cc3cc(NC(=O)C4CC45CCOCC5)ncc3cc2Cl)CC1 (single isomer, unassigned) [Ex-6.22] 0.0813 nM

Next up: O=C(Nc1cc2cc(C3CCN(C4COC4)CC3)c(Cl)cc2cn1)C1(F)CC1 [Ex-7.8] 9.12 nM

How about this compound: CC(C)(O)C1CC(C(=O)Nc2cc3cc(C4CCN(C5(C)COCC5O)CC4)c(Cl)cc3cn2)C1 (stereo not shown) [Ex-2.14] 0.186 nM

Further cases:
Value wanted: IC50 (LRRK2 G2019S (Homo sapiens, UniProt Q5S007, G2019S)) of entry COCC(C)c1cc2cc(NC(=O)C3CC3c3ccccn3)ncc2cc1Cl (single isomer, unassigned) [Ex-9.20] 29.5 nM

What do you have for CC1(N2CCC(c3cc4cc(NC(=O)C5CC56CCOCC6)ncc4cc3Cl)CC2)COC(C2CC2)C1 (single isomer, unassigned) [Ex-6.17] ? 3.55 nM

Cool, now CC1(N2CCC(c3cc4cc(NC(=O)C5CC56CCOC6)ncc4cc3Cl)CC2)COCC1F (single isomer, unassigned) [Ex-6.3] 0.0813 nM

----------
# Subject Of Test: LRRK2 G2019S (Homo sapiens, UniProt Q5S007, G2019S)
# Method Summary: LRRK2 G2019S Km ATP LanthaScreen assay
# Format: biochemical
# Conditions Used: read-out: LRRK2 pIC50 (converted)
Rule for this label: Criterion met means IC50 is less than 9 nM; Criterion not met means IC50 is at least 9 nM.

IC50 under 9 nM? Item: CC1(C)CC(C(=O)Nc2cc3cc(C4CCN(C5(C)COCC5F)CC4)c(Cl)cc3cn2)CCO1 (single isomer, unassigned) [Ex-6.37] Criterion met

Follow-up entry: Cc1cc2cnc(NC(=O)C3CC34CCOC4)cc2cc1C1CCN(C2(C)COCC2F)CC1 (single isomer, unassigned) [Ex-15.12] Criterion not met

Please give the result for Cc1cc2cnc(NC(=O)C3CC3c3ccccn3)cc2cc1C1CCN(C2(C)CCOC2)CC1 (single isomer, unassigned) [Ex-16.10] too. Criterion met

Continue with CC1(N2CCC(c3cc4cc(NC(=O)C5CC56CCOC6)ncc4cc3Cl)CC2)COCC1F (single isomer, unassigned) [Ex-6.6] Criterion met

Next:
Is IC50 of Cn1cc(C(=O)Nc2cc3cc(C4CCN([C@]5(C)COC[C@@H]5O)CC4)c(Cl)cc3cn2)cn1 (single isomer, unassigned) [Ex-12.8] strictly below 9 nM? Criterion not met

Data provenance is patent US20240398784A1.
